All figures here come from the supplement of paper PMC10567573.

B1: FAM98B (parent)
chain: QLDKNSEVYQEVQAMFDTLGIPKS

Variants of: B1
assay-summary: protein stability index of a GFP-peptide fusion (GPS, HEK-293T) (PSI 1-6); higher = more stable;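 also: lentivirally expressed fusions sorted by FACS into six bins by GFP to DsRed ratio, PSI derived from sequencing read proportions per bin multiplied by bin number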
condition-parameters: c terminus: a fixed tail appended
readout-type: protein stability index

> print(dat)
    variant.label  quantitative.readout
 1            K4P                     3
 2           M15A                  2.88
 3            V8S                  3.35
 4           D17F                  3.27
 5            D3F                  2.73
 6            Y9N                  3.52
 7           K23V                   3.4
 8            Q1C                  2.52
 9           G20V                  2.86
10            E7Q                  2.81
11           K23D                  3.82
12            Y9C                  3.58
13           V12H                  3.42
14            Q1Y                  2.62
15            Y9T                  4.39
16            D3Y                  2.49
17           M15T                  3.25
18            L2Q                  4.23
19           G20K                  3.62
20           I21G                  3.69
21           Q13W                  2.24
22           E11A                  2.86
23           D17Q                  2.86
24            L2P                  4.66
25            D3Q                  2.75
26           P22E                  4.15
27           V12W                  3.85
